# credit: ChEMBL document CHEMBL1132267

Give measured MIC for each item. Keep answers brief.
Target: Isoleucine--tRNA ligase (Staphylococcus aureus)
Experiment: In vitro antibacterial activity against isoleucyl-tRNA synthetase from Staphylococcus aureus Oxford
Assay type: functional
Reply numerically in µg/mL, unit not repeated.

Ask: Entry C[C@H]([C@@H]1O[C@H]1C[C@H]1CO[C@@H](CC(=O)CC(=O)c2ccc(F)cc2)[C@H](O)[C@@H]1O)[C@H](C)O has what MIC?
Reply: 0.5

Ask: Next compound: C[C@H]([C@@H]1O[C@H]1C[C@H]1CO[C@@H](CC(=O)CC(=O)c2ccc(N(C)C)nc2)[C@H](O)[C@@H]1O)[C@H](C)O
Reply: 1

Ask: Next compound: COc1ccc(C(=O)/C=C(\C)C[C@@H]2OC[C@H](C[C@@H]3O[C@H]3[C@@H](C)[C@H](C)O)[C@@H](O)[C@H]2O)cc1
Reply: 0.5

Ask: Next compound: COc1ccc(C(=O)CC(=O)C[C@@H]2OC[C@H](C[C@@H]3O[C@H]3[C@@H](C)[C@H](C)O)[C@@H](O)[C@H]2O)cc1
Reply: 0.5

====

Quick record of MIC values for Isoleucine--tRNA ligase (Moraxella catarrhalis).
Reply numerically in µg/mL, unit not repeated.

Ask: Requested read-out MIC, target or system Isoleucine--tRNA ligase (Moraxella catarrhalis), entry COc1ccc(C(=O)/C=C(\C)C[C@@H]2OC[C@H](C[C@@H]3O[C@H]3[C@@H](C)[C@H](C)O)[C@@H](O)[C@H]2O)cc1
Reply: 0.25

Ask: Next molecule: C[C@H]([C@@H]1O[C@H]1C[C@H]1CO[C@@H](CC(=O)CC(=O)c2ccc(F)cc2)[C@H](O)[C@@H]1O)[C@H](C)O
Reply: 0.5

Ask: Next molecule: C[C@H]([C@@H]1O[C@H]1C[C@H]1CO[C@@H](CC(=O)CC(=O)c2ccc(N(C)C)nc2)[C@H](O)[C@@H]1O)[C@H](C)O
Reply: 1

Ask: Next molecule: COc1ccc(C(=O)CC(=O)C[C@@H]2OC[C@H](C[C@@H]3O[C@H]3[C@@H](C)[C@H](C)O)[C@@H](O)[C@H]2O)cc1
Reply: 0.25

====

Tested on: Mus musculus
Experiment: The area under curve in vivo in mouse blood level after subcutaneous administration at dose 50 mk/kg e-1
Type: ADME, organism-based
Conditions: sc
reported.metric: AUC
Quote the value and follow it with the unit of measurement.

Ask: Requested read-out AUC, target or system Mus musculus, entry C[C@H]([C@@H]1O[C@H]1C[C@H]1CO[C@@H](CC(=O)CC(=O)c2ccc(N(C)C)nc2)[C@H](O)[C@@H]1O)[C@H](C)O
Reply: 13300 ng·h/mL

Ask: Next compound: COc1ccc(C(=O)/C=C(\C)C[C@@H]2OC[C@H](C[C@@H]3O[C@H]3[C@@H](C)[C@H](C)O)[C@@H](O)[C@H]2O)cc1
Reply: 5600 ng·h/mL

Ask: Next compound: COc1ccc(C(=O)CC(=O)C[C@@H]2OC[C@H](C[C@@H]3O[C@H]3[C@@H](C)[C@H](C)O)[C@@H](O)[C@H]2O)cc1
Reply: 14900 ng·h/mL

Ask: Next compound: C[C@H]([C@@H]1O[C@H]1C[C@H]1CO[C@@H](CC(=O)CC(=O)c2ccc(F)cc2)[C@H](O)[C@@H]1O)[C@H](C)O
Reply: 6800 ng·h/mL
